This collection of values is drawn from paper PMC10786891.

Experimental Target: T1, EsCas13d, nuclease-dead (Eubacterium siraeum, UniProt B0MS50, R295A;H300A;R849A;H854A)
T1 sequence: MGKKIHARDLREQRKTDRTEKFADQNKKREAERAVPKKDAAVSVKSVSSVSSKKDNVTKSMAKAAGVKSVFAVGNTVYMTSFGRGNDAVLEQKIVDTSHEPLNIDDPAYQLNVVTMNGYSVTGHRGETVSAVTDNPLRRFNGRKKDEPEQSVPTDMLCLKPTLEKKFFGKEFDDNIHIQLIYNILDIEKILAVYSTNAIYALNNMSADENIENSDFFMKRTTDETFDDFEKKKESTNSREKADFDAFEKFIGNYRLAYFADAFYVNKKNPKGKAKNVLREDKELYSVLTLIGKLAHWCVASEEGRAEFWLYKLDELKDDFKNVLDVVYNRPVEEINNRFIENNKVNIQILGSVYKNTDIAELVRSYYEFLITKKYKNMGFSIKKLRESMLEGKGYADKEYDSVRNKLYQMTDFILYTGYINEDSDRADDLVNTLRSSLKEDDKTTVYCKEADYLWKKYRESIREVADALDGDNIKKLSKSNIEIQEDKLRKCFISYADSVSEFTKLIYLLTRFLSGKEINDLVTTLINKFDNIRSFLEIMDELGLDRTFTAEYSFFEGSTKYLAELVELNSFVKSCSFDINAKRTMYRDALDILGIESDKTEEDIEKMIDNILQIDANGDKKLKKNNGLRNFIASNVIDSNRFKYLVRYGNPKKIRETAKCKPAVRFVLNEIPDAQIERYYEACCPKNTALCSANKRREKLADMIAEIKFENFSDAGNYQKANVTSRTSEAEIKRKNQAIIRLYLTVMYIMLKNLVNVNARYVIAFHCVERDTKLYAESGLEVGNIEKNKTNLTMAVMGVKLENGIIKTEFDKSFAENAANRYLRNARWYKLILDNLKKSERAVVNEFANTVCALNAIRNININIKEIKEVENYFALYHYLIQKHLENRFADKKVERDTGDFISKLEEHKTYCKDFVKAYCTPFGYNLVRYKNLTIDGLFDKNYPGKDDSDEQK
Experiment Summary: crRNA (strand 1, pre-loaded); Mg2+; 40 mM Tris-HCl pH 7.5, 150 mM NaCl, 6 mM MgCl2, 1 mM DTT, 0.1% Tween-20, 0.2 mg/ml BSA; 25 C; 10 min per concentration, then washed
Condition Info: tags: His6-TwinStrep-SUMO cleaved; N-terminal SNAP kept (SNAP-Surface 488); label: 3' end held by stalled T7 RNA polymerase
Quantity Name: Kd
Please provide the amount together with its unit, number first.

q: Kd lookup needed for target 1 C4G,C6U (mixed) RNA 1: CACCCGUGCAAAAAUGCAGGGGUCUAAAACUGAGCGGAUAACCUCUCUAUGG RNA 2: GGGAAUGGAUCCACAUCUACGAAUUCGUACCAUAGAGAGGUUAUCUGGUCACCGAGAUCGGAAGAGCACACGU , thanks.
a: 3.83 nM

q: Kd lookup needed for target 1 insC 3' of 17,insA 3' of 17 (mixed) RNA 1: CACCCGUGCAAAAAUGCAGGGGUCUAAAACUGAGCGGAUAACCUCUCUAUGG RNA 2: GGGAAUGGAUCCACAUCUACGAAUUCGUACCAUAGCAAGAGGUUAUCCGCUCACCGAGAUCGGAAGAGCACACGU , thanks.
a: 20.3 nM

q: Kd lookup needed for target 2 MT 5'PFS GAU 3'PFS CUG (mixed) RNA 1: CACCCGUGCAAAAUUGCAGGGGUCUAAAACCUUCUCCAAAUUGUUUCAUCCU RNA 2: GGGAAUGGAUCCACAUCUACGAAUUCGAUAGGAUGAAACAAUUUGGAGAAGCUGAGAUCGGAAGAGCACACGU , thanks.
a: 14.9 nM

q: Kd lookup needed for target 1 insU 3' of 7,insG 3' of 2 (mixed) RNA 1: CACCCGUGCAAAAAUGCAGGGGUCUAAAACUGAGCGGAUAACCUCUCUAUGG RNA 2: GGGAAUGGAUCCACAUCUACGAAUUCGUACCAUAGAGAGGUUAUCUCGCUCGACCGAGAUCGGAAGAGCACACGU , thanks.
a: 15.3 nM
